Tested on: Viola tricolor (VIOTR)
PROTOCOL_DETAILS: Post-emergence herbicidal action, greenhouse pot trial
Type: in vivo
REPORTED_CONDITIONS: Viola tricolor, 504 h, 320 g/ha, read-out: Post-emergence effect against VIOTR
Entries and their measured pest or weed control at 320 g/ha follow.
QUANTITY_MEASURED: pest or weed control at 320 g/ha (%)

molecule="COC(=O)C(Oc1nn(-c2ccccc2F)c(-c2ccc(F)nc2)c1I)SC (centres unmarked)" result_units=% endpoint_result=90
molecule="CCOC(=O)C(Oc1nn(-c2ncccc2F)c(-c2ccc(F)nc2)c1C1CC1)SC (centres unmarked)" result_units=% endpoint_result=90
molecule="CSC(Oc1nn(-c2cnccn2)c(-c2ccc(F)nc2)c1Cl)C(=O)O (centres unmarked)" result_units=% endpoint_result=80
molecule="CSC(Oc1nn(-c2ncccc2F)c(-c2ccc(F)nc2)c1C(F)(F)F)C(=O)O (centres unmarked)" result_units=% endpoint_result=90
molecule="COC(=O)C(Oc1nn(-c2ncccc2F)c(-c2cncc(F)c2)c1C1CC1)SC (centres unmarked)" result_units=% endpoint_result=90
molecule="CSC(Oc1nn(-c2ncccc2F)c(-c2cncc(F)c2)c1C1CC1)C(=O)O (centres unmarked)" result_units=% endpoint_result=90
molecule="CCOC(=O)C(Oc1nn(-c2ncccc2F)c(-c2ccc(F)nc2)c1I)SC (centres unmarked)" result_units=% endpoint_result=90
molecule="COC(=O)C(Oc1nn(-c2ncccc2F)c(-c2ccc(F)nc2)c1C1CC1)SC (centres unmarked)" result_units=% endpoint_result=80
molecule="CCOC(=O)C(Oc1nn(-c2ccccc2F)c(-c2ccc(F)nc2)c1C(F)(F)F)SC (centres unmarked)" result_units=% endpoint_result=90
molecule="CCOC(=O)C(Oc1nn(-c2ncccc2F)c(-c2cncc(F)c2)c1C1CC1)SC (centres unmarked)" result_units=% endpoint_result=90
molecule="CSC(Oc1nn(-c2ncccc2F)c(-c2ccc(F)nc2)c1Br)C(=O)O (single isomer, unassigned) [Example I-24]" result_units=% endpoint_result=90
molecule="CCOC(=O)C(Oc1nn(-c2ccccc2)c(-c2ccc(F)nc2)c1Br)SC (centres unmarked)" result_units=% endpoint_result=90
molecule="CSC(Oc1nn(-c2ncccc2F)c(-c2cncc(F)c2)c1Br)C(=O)O (centres unmarked)" result_units=% endpoint_result=90
molecule="CCOC(=O)C(Oc1nn(-c2ncccc2F)c(-c2ccc(F)nc2)c1Br)SC (centres unmarked) [Example I-13]" result_units=% endpoint_result=80
molecule="CCOC(=O)C(Oc1nn(-c2ncccc2F)c(-c2cncc(F)c2)c1Br)SC (centres unmarked)" result_units=% endpoint_result=90
molecule="CCOC(=O)C(Oc1nn(-c2ccccc2F)c(-c2ccc(F)nc2)c1I)SC (centres unmarked)" result_units=% endpoint_result=90
molecule="COC(=O)C(Oc1nn(-c2ccccc2F)c(-c2ccc(F)nc2)c1Br)SC (centres unmarked)" result_units=% endpoint_result=90
